assay: Solubility in water and biorelevant media; assay type: physicochemical; conditions: Simulated Gastric Fluid (SGF), room temperature, pH 2.38
measure: solubility at 24 h (µg/mL)
Field: numeric (µg/mL). Do not append units.

**Query** Consider the compound shown here: Cc1cc2ncc(-c3ccc(OC(C)(C)C)cc3)n2cc1-c1ccc(OC(C)C)cc1 [Polymorphic Form A of Compound 1] What is its recorded solubility at 24 h?
**Result** 532

###

assay: Approximate solubility at room temperature in various solvents; assay type: physicochemical; conditions: organic solvent or mixture, Toluene
measure: solubility

**Query** Consider the molecule shown here: Cc1cc2ncc(-c3ccc(OC(C)(C)C)cc3)n2cc1-c1ccc(OC(C)C)cc1 [Polymorphic Form A of Compound 1] What is its recorded solubility?
**Result** > 46 mg/mL

###

test: Approximate solubility at room temperature in various solvents; type: physicochemical; settings: organic solvent or mixture, n-Heptane
measure: solubility

**Query** Consider the compound shown here: Cc1cc2ncc(-c3ccc(OC(C)(C)C)cc3)n2cc1-c1ccc(OC(C)C)cc1 [Polymorphic Form A of Compound 1] What is its recorded solubility?
**Result** 2800 to 9300 µg/mL

###

experiment: Excipient compatibility study (4 weeks at 50 °C/75% RH); assay type: physicochemical; settings: open containers, read-out: Total Related Substances
measure: degraded at 672 h (%)
Field: numeric (%). Do not append units.

**Query** Consider the molecule shown here: Cc1cc2ncc(-c3ccc(OC(C)(C)C)cc3)n2cc1-c1ccc(OC(C)C)cc1 [Polymorphic Form A of Compound 1] What is its recorded degraded at 672 h?
**Result** 0.3

###

assay: Approximate solubility at room temperature in various solvents; assay type: physicochemical; settings: organic solvent or mixture, DMF
measure: solubility

**Query** Consider the molecule shown here: Cc1cc2ncc(-c3ccc(OC(C)(C)C)cc3)n2cc1-c1ccc(OC(C)C)cc1 [Polymorphic Form A of Compound 1] What is its recorded solubility?
**Result** > 60 mg/mL

###

experiment: Approximate solubility at room temperature in various solvents; assay type: physicochemical; details: organic solvent or mixture, Acetone
measure: solubility

**Query** Consider the compound shown here: Cc1cc2ncc(-c3ccc(OC(C)(C)C)cc3)n2cc1-c1ccc(OC(C)C)cc1 [Polymorphic Form A of Compound 1] What is its recorded solubility?
**Result** > 56 mg/mL

###

assay: Approximate solubility at room temperature in various solvents; format: physicochemical; conditions: organic solvent or mixture, Acetonitrile
measure: solubility

**Query** Consider the molecule shown here: Cc1cc2ncc(-c3ccc(OC(C)(C)C)cc3)n2cc1-c1ccc(OC(C)C)cc1 [Polymorphic Form A of Compound 1] What is its recorded solubility?
**Result** 28 to 56 mg/mL

###

test: Approximate solubility at room temperature in various solvents; type: physicochemical; settings: organic solvent or mixture, DCM
measure: solubility

**Query** Consider the molecule shown here: Cc1cc2ncc(-c3ccc(OC(C)(C)C)cc3)n2cc1-c1ccc(OC(C)C)cc1 [Polymorphic Form A of Compound 1] What is its recorded solubility?
**Result** > 48 mg/mL

###

experiment: Approximate solubility at room temperature in various solvents; format: physicochemical; conditions: organic solvent or mixture, CPME
measure: solubility

**Query** Consider the molecule shown here: Cc1cc2ncc(-c3ccc(OC(C)(C)C)cc3)n2cc1-c1ccc(OC(C)C)cc1 [Polymorphic Form A of Compound 1] What is its recorded solubility?
**Result** > 46 mg/mL
